test system: Escherichia coli TOP10; assay: shrunken log2 fold change of peptide-encoding DNA abundance (4.5 h post-induction vs induction); higher = less antimicrobial activity (less host growth inhibition); settings: time post-induction: 4.5 h; library: site-saturation at positions 5, 18, 19, 20
QUANTITY: shrunken log2 fold change
The reply should be a number, written without any unit.

[
  {
    "ITEM_SEQUENCE": "RRIRCRPPRLPRPRPRPHWEPRP",
    "shrunken log2 fold change": -0.132
  },
  {
    "ITEM_SEQUENCE": "RRIRLRPPRLPRPRPRPDKMPRP",
    "shrunken log2 fold change": -0.121
  },
  {
    "ITEM_SEQUENCE": "RRIRKRPPRLPRPRPRPPYWPRP",
    "shrunken log2 fold change": 0.429
  },
  {
    "ITEM_SEQUENCE": "RRIRMRPPRLPRPRPRPESIPRP",
    "shrunken log2 fold change": 0.522
  }
]

Next:
Exam item: Return reported shrunken log2 fold change; argument: RRIRRRPPRLPRPRPRPQETPRP
Marked response: 0.00135

---

system: Escherichia coli TOP10; experiment: shrunken log2 fold change of peptide-encoding DNA abundance (4.5 h post-induction vs induction); higher = less antimicrobial activity (less host growth inhibition); conditions: time post-induction: 4.5 h; library: site-saturation at positions 5, 18, 19, 20
Rule: shrunken log2 fold change under 0.08 gives -1, otherwise 1.

[
  {
    "ITEM_SEQUENCE": "RRIRTRPPRLPRPRPRPIWWPRP",
    "QUALITATIVE_LABEL": 1
  },
  {
    "ITEM_SEQUENCE": "RRIRHRPPRLPRPRPRPWWQPRP",
    "QUALITATIVE_LABEL": -1
  },
  {
    "ITEM_SEQUENCE": "RRIRFRPPRLPRPRPRPQLHPRP",
    "QUALITATIVE_LABEL": 1
  },
  {
    "ITEM_SEQUENCE": "RRIRYRPPRLPRPRPRPMLDPRP",
    "QUALITATIVE_LABEL": -1
  },
  {
    "ITEM_SEQUENCE": "RRIRNRPPRLPRPRPRPHCYPRP",
    "QUALITATIVE_LABEL": -1
  }
]

Exam item: Entry RRIRKRPPRLPRPRPRPPPKPRP : is its shrunken log2 fold change no less than 0.08?
Marked response: 1

Exam item: Determine whether measured shrunken log2 fold change meets or exceeds 0.08 for RRIRFRPPRLPRPRPRPQIEPRP
Marked response: -1

Exam item: Could you please find out whether RRIRGRPPRLPRPRPRPPNQPRP has shrunken log2 fold change that meets 0.08 or exceeds it?
Marked response: 1

Exam item: Does the reported shrunken log2 fold change for RRIRIRPPRLPRPRPRPLPLPRP fall at or above the 0.08 mark?
Marked response: -1

---

tested on: Escherichia coli TOP10; test: shrunken log2 fold change of peptide-encoding DNA abundance (4.5 h post-induction vs induction); higher = less antimicrobial activity (less host growth inhibition); details: time post-induction: 4.5 h; library: site-saturation at positions 5, 18, 19, 20;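 also: peptides expressed intracellularly from a pBAD plasmid library in pooled LB shake-flask culture, induced with 0.3% L-arabinose, DNA abundance read by NGS, three biological replicates, DESeq2 with apeglm shrinkage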
Parameter class (string): assigned from measured shrunken log2 fold change. Ranges: low-valued (below -0.2), mid-valued (-0.2 to below 0.1), high-valued (0.1 or more)

Please review the following examples before continuing.
[
  {
    "ITEM_SEQUENCE": "RRIRQRPPRLPRPRPRPHNCPRP",
    "TESTED_SYSTEM": "Escherichia coli TOP10",
    "QUALITATIVE_LABEL": "high-valued"
  },
  {
    "ITEM_SEQUENCE": "RRIRGRPPRLPRPRPRPRYYPRP",
    "TESTED_SYSTEM": "Escherichia coli TOP10",
    "QUALITATIVE_LABEL": "mid-valued"
  },
  {
    "ITEM_SEQUENCE": "RRIRKRPPRLPRPRPRPMDAPRP",
    "TESTED_SYSTEM": "Escherichia coli TOP10",
    "QUALITATIVE_LABEL": "high-valued"
  },
  {
    "ITEM_SEQUENCE": "RRIRGRPPRLPRPRPRPGWTPRP",
    "TESTED_SYSTEM": "Escherichia coli TOP10",
    "QUALITATIVE_LABEL": "high-valued"
  },
  {
    "ITEM_SEQUENCE": "RRIRFRPPRLPRPRPRPFVKPRP",
    "TESTED_SYSTEM": "Escherichia coli TOP10",
    "QUALITATIVE_LABEL": "low-valued"
  }
]

Exam item: Could you tell me which band RRIRCRPPRLPRPRPRPWNTPRP belongs to?
Marked response: low-valued

Exam item: Lab note: sort RRIRPRPPRLPRPRPRPYNHPRP into the matching shrunken log2 fold change band.
Marked response: low-valued

Exam item: Which category fits this record: RRIRMRPPRLPRPRPRPRITPRP
Marked response: high-valued

Exam item: Place this sequence in its band: RRIRQRPPRLPRPRPRPAGHPRP
Marked response: mid-valued

Exam item: Looking at RRIRFRPPRLPRPRPRPFEGPRP , which class would you pick?
Marked response: mid-valued

Exam item: Entry RRIRRRPPRLPRPRPRPRASPRP belongs to which category?
Marked response: high-valued

Exam item: # classify by shrunken log2 fold change band: RRIRLRPPRLPRPRPRPEVWPRP
Marked response: high-valued

Exam item: Hi there! Could you help me figure out the category for RRIRGRPPRLPRPRPRPQYRPRP please?
Marked response: mid-valued

Exam item: Which band does RRIRARPPRLPRPRPRPRPLPRP fall in?
Marked response: high-valued

Exam item: Exercise: read the entry RRIRTRPPRLPRPRPRPFKFPRP and state which class it falls under.
Marked response: mid-valued

Exam item: Field: class (shrunken log2 fold change) — entry: RRIRYRPPRLPRPRPRPVSEPRP
Marked response: mid-valued

Exam item: Form field 'band' for RRIRLRPPRLPRPRPRPCAEPRP
Marked response: high-valued

Exam item: Which category fits this record: RRIRFRPPRLPRPRPRPSIHPRP
Marked response: low-valued

Exam item: Please let me know in which category the item RRIRHRPPRLPRPRPRPPSAPRP belongs.
Marked response: high-valued

Exam item: Textbook exercise: identify the category of the sequence given here, RRIRMRPPRLPRPRPRPRIMPRP , according to its measured value.
Marked response: mid-valued

Exam item: Please classify: RRIRNRPPRLPRPRPRPPIMPRP
Marked response: low-valued

Exam item: Kindly state the category for this sequence: RRIRVRPPRLPRPRPRPDEGPRP
Marked response: mid-valued
